- experimentalTarget: T1, recombinant human activated Factor VII (FVIIa) (human, UniProt P08709 61-212; P08709 213-466, ten glutamate residues of the Gla domain may be gamma-carboxylated)
- T1 construct: chains tethered by a disulfide bond; also called Factor VIIa; rFVIIa
- T1 sequence 1: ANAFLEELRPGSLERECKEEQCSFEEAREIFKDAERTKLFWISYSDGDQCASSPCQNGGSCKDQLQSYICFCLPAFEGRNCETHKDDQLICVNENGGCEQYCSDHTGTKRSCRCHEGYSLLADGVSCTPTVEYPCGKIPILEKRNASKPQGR
- T1 sequence 2: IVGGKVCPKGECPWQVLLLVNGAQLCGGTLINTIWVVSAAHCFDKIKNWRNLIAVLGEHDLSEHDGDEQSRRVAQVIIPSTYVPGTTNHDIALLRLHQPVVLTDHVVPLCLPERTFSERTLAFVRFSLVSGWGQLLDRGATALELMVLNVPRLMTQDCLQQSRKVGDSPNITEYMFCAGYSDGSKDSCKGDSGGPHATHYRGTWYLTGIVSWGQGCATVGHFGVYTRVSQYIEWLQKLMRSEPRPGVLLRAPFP
- assayText: BLI (Fortebio)
quantityKind: pKd
On this scale, pKd is minus log10 of a concentration expressed in M (mol/L).

VH SEQ ID NO 650 / VL SEQ ID NO 342 (antibody, IgG4, V domains shown, humanized 11F2; IgG4 S228P/kappa) VH: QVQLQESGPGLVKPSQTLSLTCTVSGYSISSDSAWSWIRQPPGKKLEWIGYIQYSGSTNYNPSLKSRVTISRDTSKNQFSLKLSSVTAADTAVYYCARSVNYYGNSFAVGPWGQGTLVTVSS VL: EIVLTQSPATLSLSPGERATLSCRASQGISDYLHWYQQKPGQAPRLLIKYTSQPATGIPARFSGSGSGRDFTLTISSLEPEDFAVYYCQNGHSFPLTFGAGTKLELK ... 8.80

We next turn to a different binder, shown below.
Q: Record request: pKd value, item VH SEQ ID NO 642 / VL SEQ ID NO 502 (antibody, IgG4, V domains shown, humanized 11F2; IgG4 S228P/kappa) VH: QVQLQESGPGLVKPSQTLSLTCTVSGYSISSDSAWSWIRQPPGKGLEWIGYIYYSGSTNYNPSLKSRVTISVDTSKNQFSLKLSSVTAADTAVYYCARSVNYYGNSFAVGYWGQGTSVTVSS VL: EIVLTQSPATLSLSPGERATLSCRASQGVSDYLHWYQQKPGQAPRLLIKYTSQPATGIPARFSGSGSGTDFTLTISSLEPEDFAVYYCQNGHSFPLTFGQGTKLEIK
Result: 8.34

Value source: patent US20220064329A1
